biological target: human c-Met on cells (NCI-H441, NCI-H292, U87-MG) (human, UniProt P08581 25-1390); assay: cell-based or functional assay
Sequence (P08581 other isoform, or with tags, fused parts or gaps limits assumed): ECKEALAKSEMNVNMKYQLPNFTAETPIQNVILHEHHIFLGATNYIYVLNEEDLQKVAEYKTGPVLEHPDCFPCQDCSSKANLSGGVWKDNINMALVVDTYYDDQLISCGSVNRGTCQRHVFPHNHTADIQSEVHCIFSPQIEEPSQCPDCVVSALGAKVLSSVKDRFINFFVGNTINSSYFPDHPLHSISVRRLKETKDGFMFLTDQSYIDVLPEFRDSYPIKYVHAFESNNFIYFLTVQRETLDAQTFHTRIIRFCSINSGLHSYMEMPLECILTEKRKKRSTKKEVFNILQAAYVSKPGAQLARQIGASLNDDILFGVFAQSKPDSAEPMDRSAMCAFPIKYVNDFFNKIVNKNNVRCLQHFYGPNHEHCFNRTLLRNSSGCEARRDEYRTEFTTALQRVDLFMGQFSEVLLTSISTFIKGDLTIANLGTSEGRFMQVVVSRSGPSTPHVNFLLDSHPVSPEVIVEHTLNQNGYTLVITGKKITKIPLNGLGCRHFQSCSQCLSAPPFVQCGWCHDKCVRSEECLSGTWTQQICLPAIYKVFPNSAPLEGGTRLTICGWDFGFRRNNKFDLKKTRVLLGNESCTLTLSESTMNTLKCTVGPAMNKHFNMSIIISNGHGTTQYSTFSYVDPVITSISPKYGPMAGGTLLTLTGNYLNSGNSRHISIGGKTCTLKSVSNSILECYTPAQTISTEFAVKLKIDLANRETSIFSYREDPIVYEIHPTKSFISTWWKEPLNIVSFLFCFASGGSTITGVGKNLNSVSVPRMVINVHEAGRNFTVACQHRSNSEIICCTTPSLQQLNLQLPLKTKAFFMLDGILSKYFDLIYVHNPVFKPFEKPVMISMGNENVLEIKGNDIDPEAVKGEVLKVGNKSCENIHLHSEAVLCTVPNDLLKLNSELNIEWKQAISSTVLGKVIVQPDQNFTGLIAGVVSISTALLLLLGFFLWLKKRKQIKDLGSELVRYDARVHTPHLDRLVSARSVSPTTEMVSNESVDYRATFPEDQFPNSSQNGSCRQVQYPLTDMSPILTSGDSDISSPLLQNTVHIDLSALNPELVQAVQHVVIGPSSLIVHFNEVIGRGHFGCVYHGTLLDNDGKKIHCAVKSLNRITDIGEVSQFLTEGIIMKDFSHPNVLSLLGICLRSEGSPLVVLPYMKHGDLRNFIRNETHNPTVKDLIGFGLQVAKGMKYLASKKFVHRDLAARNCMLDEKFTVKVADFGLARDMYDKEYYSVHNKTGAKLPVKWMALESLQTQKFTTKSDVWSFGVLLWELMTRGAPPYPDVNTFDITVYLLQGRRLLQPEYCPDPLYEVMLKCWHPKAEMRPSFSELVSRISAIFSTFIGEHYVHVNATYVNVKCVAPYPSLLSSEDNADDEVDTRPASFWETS
Catalogue of pMet inhibition in H441 cells IC50 readings, one per entry.
Quantity measured: pMet inhibition in H441 cells IC50 (nM)

| Binder | Quantity measured | Unit descriptor | Recorded value |
| --- | --- | --- | --- |
| ECB96 (designed binder, not shown: small tags and cut ends, Bispecific: P54AR4-83v22, (AP)5, P114AR9P122-A7v2) MLPAPKNLVVSEVTEDSARLSWDDPWAFYESFLIQYQESEKVGEAIVLTVPGSERSYDLTGLKPGTEYTVSIYGVHNVYKDTNIRGLPLSAIFTTAPAPAPAPAPLPAPKNLVVSRVTEDSARLSWTAPDAAFDSFWIRYFEFVSKGDAIVLTVPGSERSYDLTGLKPGTEYVVNILGVKGGSISPPLSAIFTT | pMet inhibition in H441 cells IC50 | nM | 835 |
| ECB108 (designed binder, not shown: small tags and cut ends, Bispecific: P54AR4-83v23, (AP)5, P114AR9P122-A7v2) MLPAPKNLVVSEVTEDSARLSWDDPHAFYESFLIQYQESEKVGEAIVLTVPGSERSYDLTGLKPGTEYTVSIYGVHNVYKDTNIRGLPLSAIFTTAPAPAPAPAPLPAPKNLVVSRVTEDSARLSWTAPDAAFDSFWIRYFEFVSKGDAIVLTVPGSERSYDLTGLKPGTEYVVNILGVKGGSISPPLSAIFTT | pMet inhibition in H441 cells IC50 | nM | 126 |
| ECB106 (designed binder, not shown: small tags and cut ends, Bispecific: P54AR4-83v23, (AP)5, P114AR7P94-A3v22) MLPAPKNLVVSEVTEDSARLSWDDPHAFYESFLIQYQESEKVGEAIVLTVPGSERSYDLTGLKPGTEYTVSIYGVHNVYKDTNIRGLPLSAIFTTAPAPAPAPAPLPAPKNLVVSRVTEDSARLSWTAPDAAFDSFWIRYFEFLGSGEAIVLTVPGSERSYDLTGLKPGTEYVVNILGVKGGKISPPLSAIFTT | pMet inhibition in H441 cells IC50 | nM | 53.3 |
